# Method: In vivo pharmacokinetics after oral administration
# Test Parameters: rat, male Wistar rats, 3 mg/kg of opicapone, plasma
Measure: AUC(0-t)
A complete answer gives the number followed by the unit.

For this compound ( Cc1c(Cl)c(C)[n+]([O-])c(Cl)c1-c1noc(-c2cc(O)c(O)c([N+](=O)[O-])c2)n1 [Opicapone Control, opicapone] ), measured AUC(0-t) is 1400 ng·h/mL

----------
# Method: In vivo pharmacokinetics after oral administration
# Test Parameters: rat, male Wistar rats, 3 mg/kg of opicapone, plasma
Measure: Cmax (ng/mL)
One number for each entry, in ng/mL.

For this molecule ( Cc1c(Cl)c(C)[n+]([O-])c(Cl)c1-c1noc(-c2cc(O)c(O)c([N+](=O)[O-])c2)n1 [Opicapone Control, opicapone] ), measured Cmax is 379

----------
# Method: In vivo pharmacokinetics after oral administration
# Test Parameters: rat, male Wistar rats, 3 mg/kg of opicapone, plasma
Measure: tmax (h)
One number for each entry, in h.

For this compound ( Cc1c(Cl)c(C)[n+]([O-])c(Cl)c1-c1noc(-c2cc(O)c(O)c([N+](=O)[O-])c2)n1 [Opicapone Control, opicapone] ), measured tmax is 2

----------
# Method: In vivo pharmacokinetics after oral administration
# Test Parameters: rat, male Wistar rats, 3 mg/kg of opicapone, plasma, read-out: Clast
# Procedure: The pharmacokinetics of solid dispersions of amorphous opicapone were evaluated in male Wistar rats, after oral administration of Sample 1, 4 or 6, or a control sample of micronised crystalline opicapone, at a dose of 3 mg/kg of opicapone. The exposure of these solid dispersions, formulated as a HPMC suspensions (50 mg of opicapone per 100 mL of 0.2% HPMC), were compared with the exposure of micronised crystalline opicapone, at a dose of 3 mg/kg of opicapone. […]
Measure: concentration at 8 h (ng/mL)
Give bare numbers, in ng/mL.

For this compound ( Cc1c(Cl)c(C)[n+]([O-])c(Cl)c1-c1noc(-c2cc(O)c(O)c([N+](=O)[O-])c2)n1 [Opicapone Control, opicapone] ), measured concentration at 8 h is 78.6
